Reported pKi values for a set of compounds
Experiment: Displacement of [3H]U-69,593 from kappa opioid receptor in dog brain after 90 mins by scintillation counting
Design: species or system Canis lupus familiaris
pKi: −log10 of the molar value.

[
  {
    "compound": "C[C@]1(c2cccc(NS(C)(=O)=O)c2)[C@@H]2CN(CCCc3ccccc3)C[C@@H]21",
    "pKi": 7.03
  },
  {
    "compound": "CC[C@]1(c2cccc(NS(C)(=O)=O)c2)[C@@H]2CN(CC(O)Cc3ccccc3)C[C@@H]21 (stereo partly drawn)",
    "pKi": 7.15
  },
  {
    "compound": "CCCCCCN1C[C@@H]2[C@H](C1)[C@@]2(C)c1cccc(NS(=O)(=O)c2cccnc2)c1",
    "pKi": 5.82
  },
  {
    "compound": "CCCCCCN1C[C@@H]2[C@H](C1)[C@]2(c1cccc(NS(C)(=O)=O)c1)C(C)C",
    "pKi": 7.32
  },
  {
    "compound": "CCCCCCN1C[C@@H]2[C@H](C1)[C@@]2(CCC)c1cccc(NS(C)(=O)=O)c1",
    "pKi": 6.48
  },
  {
    "compound": "CC[C@]1(c2cccc(NS(C)(=O)=O)c2)[C@@H]2CN(CC3Cc4ccccc4C3O)C[C@@H]21 (stereo partly drawn)",
    "pKi": 8.35
  },
  {
    "compound": "CCCCCCN1C[C@@H]2[C@H](C1)[C@@]2(C)c1cccc(NS(=O)(=O)CCC)c1",
    "pKi": 5.88
  },
  {
    "compound": "C[C@]1(c2cccc(NS(C)(=O)=O)c2)[C@@H]2CN(CC3Cc4ccccc4C3)C[C@@H]21",
    "pKi": 7.29
  }
]
